Attribution: patent US8299048B2

# Assay system: human GR (Homo sapiens, UniProt P04150)
# Sequence (P04150 whole entry): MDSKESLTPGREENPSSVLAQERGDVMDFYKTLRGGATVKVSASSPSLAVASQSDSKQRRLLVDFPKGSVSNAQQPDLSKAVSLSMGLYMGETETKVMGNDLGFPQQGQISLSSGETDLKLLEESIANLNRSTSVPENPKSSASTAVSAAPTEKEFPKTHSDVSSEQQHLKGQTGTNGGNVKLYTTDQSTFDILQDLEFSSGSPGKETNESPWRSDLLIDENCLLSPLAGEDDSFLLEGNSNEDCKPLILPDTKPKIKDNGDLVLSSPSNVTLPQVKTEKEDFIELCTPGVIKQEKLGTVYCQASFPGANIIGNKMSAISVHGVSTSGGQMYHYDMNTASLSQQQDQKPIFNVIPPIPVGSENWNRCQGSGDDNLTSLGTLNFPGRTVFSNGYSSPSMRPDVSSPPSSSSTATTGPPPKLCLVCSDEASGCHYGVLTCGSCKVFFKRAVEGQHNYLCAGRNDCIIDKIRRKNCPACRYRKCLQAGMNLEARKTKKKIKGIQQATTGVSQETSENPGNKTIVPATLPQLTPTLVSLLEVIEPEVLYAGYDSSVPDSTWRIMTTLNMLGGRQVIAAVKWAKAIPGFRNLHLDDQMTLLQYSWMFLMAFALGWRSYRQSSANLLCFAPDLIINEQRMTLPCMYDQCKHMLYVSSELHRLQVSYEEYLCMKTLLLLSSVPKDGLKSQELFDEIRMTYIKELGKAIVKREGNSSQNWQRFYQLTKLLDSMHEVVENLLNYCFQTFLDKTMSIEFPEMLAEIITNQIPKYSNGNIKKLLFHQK
# Assay procedure: Trans-Activation Modulation of Glucocorticoid Receptor (GRAMMER), MMTV-LUC reporter, agonist mode
# Format: cell-based
# Parameters: endogenous in cells
# Condition context: A549 cells; inflection point; read-out: Transactivation A549 Cells GRAMMER IP
// boundary case: EC50 equal to 500 nM maps to 0.0; strictly smaller maps to 1.0

The examples below pair each entry with its known result.
>  <Compound>
CCS(=O)(=O)N(CC1CCCO1)C[C@H]1CCC2=Cc3c(cnn3-c3ccc(F)cc3)C[C@@]21C (stereo partly drawn)

>  <Discrete label>
0.0

$$$$
>  <Compound>
CN1CCOc2cc(S(=O)(=O)N(CC3CC3)C[C@H]3CCC4=Cc5c(cnn5-c5ccc(F)cc5)C[C@@]43C)ccc21

>  <Discrete label>
1.0

$$$$

**Query** In plain terms, does C[C@]12Cc3cnn(-c4ccc(F)cc4)c3C=C1CC[C@@H]2CN(CCc1ccccc1F)S(=O)(=O)CCN1C(=O)c2ccccc2C1=O come in under 500 nM for EC50?
**Result** 1.0

**Query** Given the entry CC(=O)Nc1ccc(S(=O)(=O)N(CCO)C[C@H]2CCC3=Cc4c(cnn4-c4ccc(F)cc4)C[C@@]32C)cc1 , would its reported EC50 be below 500 nM?
**Result** 1.0

**Query** For Cn1cc(S(=O)(=O)N(CC(O)C(F)F)C[C@H]2CCC3=Cc4c(cnn4-c4ccc(F)cc4)C[C@@]32C)c(C(F)(F)F)n1 (stereo partly drawn) , is the recorded EC50 below the cut-off of 500 nM?
**Result** 1.0

###

# Assay system: human GR (Homo sapiens, UniProt P04150)
# Assay procedure: Trans-Activation Modulation of Glucocorticoid Receptor (GRAMMER), MMTV-LUC reporter, agonist mode
# Type: cell-based
# Parameters: endogenous in cells
# Condition context: A549, A549 cells; maximum activity; read-out: Transactivation A549 Cells GRAMMER Emax
Would you mind telling me the reported Emax of each entry?
Give bare numbers, in %.

>  <Compound>
C[C@]12Cc3cnn(-c4ccc(F)cc4)c3C=C1CC[C@@H]2CN(CCC#N)S(=O)(=O)c1ccccc1F

>  <Assay system>
human GR (Homo sapiens, UniProt P04150)

>  <Emax (%)>
53

$$$$

Can you give me Emax for all of these, one by one?
1. C[C@]12Cc3cnn(-c4ccc(F)cc4)c3C=C1CC[C@@H]2CN(CCc1ccccc1Cl)S(=O)(=O)c1ccccc1F
2. Cn1nc(C(F)(F)F)cc1-c1ccc(S(=O)(=O)N(CCO)C[C@H]2CCC3=Cc4c(cnn4-c4ccc(F)cc4)C[C@@]32C)s1
3. CCCS(=O)(=O)N(CC(O)C(F)(F)F)C[C@H]1CCC2=Cc3c(cnn3-c3ccc(F)cc3)C[C@@]21C (some centres unmarked)
4. C[C@]12Cc3cnn(-c4ccc(F)cc4)c3C=C1CC[C@@H]2CN(CC#N)S(=O)(=O)c1ccc(C#N)cc1
5. C[C@]12Cc3cnn(-c4ccc(F)cc4)c3C=C1CC[C@@H]2CN(CC(O)C(F)(F)F)S(=O)(=O)Cc1ccccc1C(=O)O (some centres unmarked)
6. C[C@]12Cc3cnn(-c4ccc(F)cc4)c3C=C1CC[C@@H]2CN(CC1(OS(=O)(=O)CC(F)(F)F)CC1)S(=O)(=O)CC(F)(F)F
7. Cc1cc(S(=O)(=O)N(CC#N)C[C@H]2CCC3=Cc4c(cnn4-c4ccc(F)cc4)C[C@@]32C)c(C)cc1Cl

**Result**
41.6
6.5
62.6
44
58.3
58.8
4.7

# batch: return Emax for each of the 5 compounds below
1. C[C@]12Cc3cnn(-c4ccc(F)cc4)c3C=C1CC[C@@H]2CN(CC#N)S(=O)(=O)c1cccc(Cl)c1Cl
2. Cc1ccc(S(=O)(=O)N(CCO)C[C@H]2CCC3=Cc4c(cnn4-c4ccc(F)cc4)C[C@@]32C)s1
3. Cn1cc(S(=O)(=O)N(CC#N)C[C@H]2CCC3=Cc4c(cnn4-c4ccc(F)cc4)C[C@@]32C)c(C(F)(F)F)n1
4. C[C@H](O)CN(C[C@H]1CCC2=Cc3c(cnn3-c3ccc(F)cc3)C[C@@]21C)S(=O)(=O)Cc1ccccc1C(=O)O
5. C[C@]12Cc3cnn(-c4ccc(F)cc4)c3C=C1CC[C@@H]2CN(CCO)S(=O)(=O)Cc1ccccc1C(N)=O

**Result**
1: 5.8; 2: 7.9; 3: 29.4; 4: 15; 5: 8.2

**Query** Form entry - test system: human GR (Homo sapiens, UniProt P04150); read-out: Emax; compound: C[C@]12Cc3cnn(-c4ccc(F)cc4)c3C=C1CC[C@@H]2CN(CC#N)S(=O)(=O)c1ccc(-c2ccccc2)cc1
**Result** 4.2
